Sourced from patent US9617282B2

# ASSAYED TARGET: IRAK4 (Homo sapiens (Human))
# MEASUREMENT PROTOCOL: IRAK-4 biochemical kinase assay, AlphaScreen format
# MEASUREMENT SETUP: 1 nM IRAK4, 1.6 μM peptide, 10 μM ATP, 3.5 h at RT; class symbols
MEASURED PROPERTY: IC50

Recorded results for 3 compounds are shown here.
1) O=C1Nc2cn(C3CCOCC3)nc2C(=O)NCCCOCCOc2cc(ccn2)-c2nc1cs2 : < 100 nM
2) CCNC(=O)N1CCCc2cc(ccn2)-c2nc(cs2)C(=O)Nc2cn(C3CCOCC3)nc2C(=O)NCC1 : < 100 nM
3) Cn1cc2c(n1)C(=O)NCCCCOc1cc(ccn1)-c1nc(co1)C(=O)N2 : < 100 nM

Here is the next item to consider.
Identify measured IC50 obtained with IRAK4 (Homo sapiens (Human)) for NC(=O)CCC1NC(=O)c2nn(C3CCOCC3)cc2NC(=O)c2csc(n2)-c2ccnc(c2)CCCNC1=O (stereo not shown) . < 1000 nM

----------
# ASSAYED TARGET: IRAK4 (Homo sapiens (Human), UniProt Q9NWZ3)
# Sequence (Q9NWZ3 whole entry, species assumed): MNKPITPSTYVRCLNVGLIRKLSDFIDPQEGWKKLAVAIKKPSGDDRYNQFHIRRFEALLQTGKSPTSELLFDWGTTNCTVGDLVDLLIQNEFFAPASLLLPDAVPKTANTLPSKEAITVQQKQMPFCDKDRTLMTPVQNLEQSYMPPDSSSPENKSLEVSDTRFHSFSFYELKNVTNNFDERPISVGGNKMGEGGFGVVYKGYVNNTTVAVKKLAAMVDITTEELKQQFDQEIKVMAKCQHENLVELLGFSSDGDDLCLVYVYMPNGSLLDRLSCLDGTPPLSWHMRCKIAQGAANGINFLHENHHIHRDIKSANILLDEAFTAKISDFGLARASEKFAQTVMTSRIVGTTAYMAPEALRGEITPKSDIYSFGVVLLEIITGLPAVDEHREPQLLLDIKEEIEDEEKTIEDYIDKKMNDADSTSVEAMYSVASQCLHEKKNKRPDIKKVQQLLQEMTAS
# MEASUREMENT PROTOCOL: IRAK-4 biochemical kinase assay, AlphaScreen format
# MEASUREMENT SETUP: 1 nM IRAK4, 1.6 μM peptide, 10 μM ATP, 3.5 h at RT; class symbols
pIC50: −log10 of the molar value.
MEASURED PROPERTY: pIC50

Recorded results for 8 compounds are shown here.
1) Cn1cc2c(n1)C(=O)NCCCCCOc1cnccc1-c1nc(co1)C(=O)N2 [Example 63] : > 7.00
2) CN1CCN(CCn2ncc3c2C(=O)NCCOCCOc2cc(ccn2)-c2nc(cs2)C(=O)N3)CC1 [Example 141] : > 5.00
3) CN1CCCc2cc(ccn2)-c2nc(cs2)C(=O)Nc2cn(C3CCOCC3)nc2C(=O)NCC1 [Example 169] : > 7.00
4) O=C1Nc2cn(C3CCOCC3)nc2C(=O)NCCCCCc2cc(ccn2)-c2nc1cs2 [Example 95] : > 7.00
5) O=C1Nc2cn(C3CCNCC3)nc2C(=O)NCCOCCOc2cc(ccn2)-c2nc1cs2 [Example 165] : > 7.00
6) NCCC(=O)N1CCCc2cc(ccn2)-c2nc(cs2)C(=O)Nc2cn(C3CCOCC3)nc2C(=O)NCC1 [Example 178] : > 7.00
7) Cn1cc2c(n1)C(=O)NCCCCCCCCNc1cc(ccn1)-c1nc(co1)C(=O)N2 [Compound 29] : > 7.00
8) O=C1Nc2cn(CCN3CCCCC3)nc2C(=O)NCCOCCOc2cc(ccn2)-c2nc1cs2 [Example 116] : > 7.00

Can you give me pIC50 for all of these, one by one?
1. O=C1Nc2ccc(CCCN3CCCCC3)cc2OCCCCCNc2cc(ccn2)-c2nc1cs2 [Compound 27]
2. Cn1cc2c(n1)C(=O)N(COCC[Si](C)(C)C)CCCCOc1cc(ccn1)-c1nc(cn1COCC[Si](C)(C)C)C(=O)N2 [Example 93]
3. Cn1cc(N2CCCCCOc3cnccc3-c3nc(co3)C2=O)cn1 [Compound 61]

["> 7.00", "> 5.00", "> 6.00"]

For each listed entry, give its pIC50.
1. Cn1cc2c(n1)C(=O)NCCCCOc1cc(ccn1)-c1nc(cs1)C(=O)N2 [Example 91]
2. O=C1Nc2cn(C3CCOCC3)nc2C(=O)NCCCc2cc(ccn2)-c2nc1cs2 [Example 192]
3. O=C1NCCCCCCCCNc2cc(ccn2)-c2nc1cs2 [Example 64]
4. NC(=O)Cn1cc2c(n1)C(=O)NCCOCCOc1cc(ccn1)-c1nc(cs1)C(=O)N2 [Example 147]
5. CC(C)(C)OC(=O)N1CCN(CCn2cc3c(n2)C(=O)NCCOCCOc2cc(ccn2)-c2nc(cs2)C(=O)N3)CC1 [Example 114]
6. O=C1Nc2ccncc2C(=O)NCCOCCOc2cc(ccn2)-c2nc1cs2 [Example 129]

1: > 7.00; 2: > 5.00; 3: > 6.00; 4: > 6.00; 5: > 7.00; 6: > 7.00
